Biological target: T1, His-TRAF6_(310-522) (human, UniProt Q9Y4K3 310-522)
T1 chain: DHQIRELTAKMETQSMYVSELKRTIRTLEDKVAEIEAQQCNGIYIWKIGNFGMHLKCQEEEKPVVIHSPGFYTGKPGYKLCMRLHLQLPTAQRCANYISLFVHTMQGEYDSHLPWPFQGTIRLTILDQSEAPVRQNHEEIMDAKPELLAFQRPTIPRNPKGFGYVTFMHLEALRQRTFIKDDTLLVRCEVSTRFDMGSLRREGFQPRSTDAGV
Test: competition with GST-CD40(216-277)
property name: pIC50
Quick note: pIC50 means taking -log10 of the concentration in moles per liter.

Prompt: I would be grateful if you could share the reported pIC50 for DRQIKIWFQNRRMKWKKRKIPTEDEY (also called RANK-derived peptide; source: bought: Novus Biologicals NBP2-26506) [TRAF6 inhibitor peptide DRQIKIWFQNRRMKWKK-RKIPTEDEY] .
Response: 6.26
